Measured values drawn from PubChem BioAssay for this set.

# measurement.notes: viability loss with induced miR-34 in A549 – imaging, A549 dox-inducible miR-34, nuclei and caspase counts, primary screen (AID 1347080); note: test concentration not given here
# conditions.used: A549 miR-34 inducible, Hoechst nuclei count, 48 h; measured here: total cells with miR-34 induction; stronger effect = lower value
Could you please mark 1 for values of cell count below 6000 and -1 for values at or above it?

Worked examples follow.
[
  {
    "compound": "O=C(OC1CC2CC3CC(C1)N2CC3=O)c1c[nH]c2ccccc12 (centres undefined)",
    "assigned.category": -1
  },
  {
    "compound": "OCC(O)C(O)CO (centres undefined)",
    "assigned.category": -1
  },
  {
    "compound": "COc1cc2c(cc1O)CC[C@@H]1[C@H]2CC[C@]2(C)C(O)CC[C@@H]12 (some centres undefined)",
    "assigned.category": 1
  },
  {
    "compound": "CCCCCCCCCCCCCCCCCCc1ccc(C(=O)/C=C/C(=O)O)cc1",
    "assigned.category": 1
  },
  {
    "compound": "CC(C)SC1OC(CO)C(O)C(O)C1O (centres undefined)",
    "assigned.category": -1
  },
  {
    "compound": "O=C(O)c1cc2cccc([N+](=O)[O-])c2[nH]1",
    "assigned.category": -1
  },
  {
    "compound": "CC(O)C(O)[C@H]1CNc2nc(N)[nH]c(=O)c2N1 (some centres undefined)",
    "assigned.category": -1
  },
  {
    "compound": "CC(C)(C)n1nc(Cc2cccc3ccccc23)c2c(N)ncnc21",
    "assigned.category": 1
  }
]

Enquiry: # check: cell count < 6000 for COC1OC2O[C@@]3(C)CCC4C(C)CCC(C1C)[C@@]24OO3 (some centres undefined)
Return: -1

Enquiry: # check: cell count < 6000 for CNCC[C@H](Oc1ccc(C(F)(F)F)cc1)c1ccccc1
Return: -1

Enquiry: # check: cell count < 6000 for Nc1ccc(N2C(=O)c3ccccc3C2=O)c(Cl)c1
Return: -1

Enquiry: # check: cell count < 6000 for O=C1CN(C(=O)c2ccncc2)CCN1Cc1ccc2c(c1)OCO2
Return: -1

Enquiry: # check: cell count < 6000 for COc1cc2ncnc(Sc3nnc(C)s3)c2cc1OC
Return: 1

Enquiry: # check: cell count < 6000 for CCOC(=O)c1c(C)nn(-c2ccc(OC)cc2)c1C
Return: -1

Enquiry: # check: cell count < 6000 for Nc1ccccc1NC(=O)CCCCCCC(=O)Nc1ccccc1
Return: 1
